- PROTOCOL DESCRIPTION: qHTS for Inducers of the Endoplasmic Reticulum Stress Response (ERSR) in Human Glioma: qHTS; note: % of control where 0% means no effect; nearly all actives have a fitted effect of over 35% in size
- EXPERIMENTAL CONDITIONS: U87-MG GRP78 promoter luciferase reporter, 16 h; hits give high values
About 75 (0.02%) of roughly 420,000 compounds were called active. For the sample, actives were picked, then their nearest neighbours and some compounds at random.
Listing of entries alongside the reported activation.
A number alone suffices; assume %.

>>> recorded_value("O=C(CCN1Cc2ccccc2OC(c2ccccc2)C1)N[C@@H]1CS(=O)(=O)C[C@H]1O (stereo partly drawn)")
-4.81

For reference, reported activation for COc1cccc(-c2cc(=O)c3cc(NC(=O)c4ccc(C)cc4)ccc3[nH]2)c1 stands at -1.6

For reference, reported activation for CC[C@H](C)[C@H](NC(=O)[C@@H](N)CCC(=O)O)C(=O)N[C@@H](CC(C)C)C(=O)N[C@@H](CC(=O)O)C(=O)N[C@H](C(=O)N1CCC[C@H]1C(=O)N[C@@H](CO)C(=O)N[C@H](C(=O)O)[C@@H](C)O)C(C)C stands at -2.27

For reference, reported activation for COc1ccc(COC(=O)N/N=C2/C[C@@H](O)[C@@H](O)[C@@H]3[C@@H]4C(=O)N([C@@H](C)c5ccccc5)C(=O)[C@H]4CC[C@@H]23)cc1 stands at -1.75

For reference, reported activation for C=C(C)C1CC=C(CO)CC1 (stereo not drawn) stands at -1.71

For reference, reported activation for C[C@@H]1CN(Cc2ccc3c(c2)CN(Cc2ccc(Oc4ncccn4)cc2)CCO3)C[C@H](C)O1 stands at -2.33

For reference, reported activation for COc1ccc(C(=O)N2CCC3(CCCN(C(c4ccccc4)c4ccccc4)C3)CC2)cc1 stands at -2.87

For reference, reported activation for COCC(=O)Nc1cc(C(=O)N2CCCC(c3ccccc3)CC2)c2c(c1)nc(-c1ccncc1)n2C (stereo not drawn) stands at 1.99
